Origin of the recorded values: PubChem BioAssay (NCI)

Measured growth values are reported for all entries that follow.
# Test system: RPMI-8226 leukemia
# Experiment Notes: NCI-60 one-dose screen, 48 h (100 = growth as untreated, 0 = no growth, -100 = all killed)
# Condition Description: 10 µM unless noted
This is part of a sample that, as a whole, favours compounds with a hit. Of some 83,000 tested, about 20% had one in any assay.
The reply should be a number in %, with the unit left off.

These solved cases illustrate the format of a correct answer.
1. C=C1C(=O)O[C@H]2[C@H]1CC/C(CNC(=O)CCc1ccc(OC)cc1)=C\CC[C@@]1(C)O[C@@H]21 51.4
2. CCCCCCNC(=O)Oc1ccc(/C(=C(\C)c2ccccc2)c2ccc(OCCN3CCCCC3)cc2)cc1 39.6

Query string: Please look up its growth: CCOC(=O)C1=C(C)NC(SCc2cc(=O)oc3ccc(F)cc23)=N[C@@H]1c1cccc2ccccc12
Result string: 90.5

Query string: Please look up its growth: COc1ccc(C(C)=O)c(OC)c1
Result string: 100

Query string: Please look up its growth: CCOC(=O)c1cc(C#N)n2ccc3ccccc3c12
Result string: 111

* * *

# Tested on: HOP-62 NSCLC
# Experiment Notes: NCI-60 one-dose screen, 48 h (100 = growth as untreated, 0 = no growth, -100 = all killed)
# Condition Description: 10 µM unless noted
About 83,000 compounds went through this panel and 20% of them were active in at least one assay; those are over-represented in the sample as a whole.
Measurement Type: growth (%)
The reply should be a number in %, with the unit left off.

These solved cases illustrate the format of a correct answer.
1) CC(C)=CCC[C@](C)(O)[C@H]1CC[C@]2(C)[C@@H]1CC[C@@H]1[C@@]3(C)C/C(=C/c4ccccc4)C(=O)C(C)(C)[C@@H]3CC[C@]12C 92.2
2) O=C(CSc1nc2ccccc2[nH]1)NCc1ccccc1 88.5
3) O=S(=O)(NCCNc1nccc(-c2c(-c3cccc(F)c3)nc3sccn23)n1)c1ccccc1 60.2
4) Cc1cc2c(c(C)c1Cl)C(=O)/C(=C/c1ccc(O)c(O)c1)O2 90.5
5) CC1(C)NCCC[C@]2(C)[C@H]3CC(=O)[C@H]4[C@@H]5C[C@](C)(CO)CC[C@]5(C)CC[C@@]4(C)[C@]3(C)CC[C@@H]12 92.4
6) CC[C@]12C=CCN3CC[C@@]4(c5cc(NC(=O)CCC(=O)O[C@H]6CC[C@H]7[C@@H]8CCC9=CC(=O)CC[C@@H]9[C@H]8CC[C@]67C)c(OC)cc5N(C)[C@H]4[C@@](O)(C(=O)OC)[C@@H]1OC(C)=O)[C@@H]32 89.3

Alright, here's another molecule for you.
Query string: Please look up its growth: O=S(=O)(NCCCNc1nccc(-c2c(-c3cccc(F)c3)nc3sccn23)n1)c1cccc(F)c1
Result string: 61.3

* * *

# System: CAKI-1 renal
# Experiment Notes: NCI-60 one-dose screen, 48 h (100 = growth as untreated, 0 = no growth, -100 = all killed)
# Condition Description: 10 µM unless noted
Compounds without any hit were thinned out: in the full panel of roughly 83,000, 20% have a hit.
Measured growth values are reported for all entries that follow.
The reply should be a number in %, with the unit left off.

Compound	Measurement Type	Reading
O=C(NCCNc1nccc(-c2c(-c3cccc(F)c3)nc3sccn23)n1)c1ccc(Cl)cc1	growth	41.5
CC(Oc1ccc(C(=O)O)cc1C(F)(F)F)c1ccc(Oc2ccccc2)cn1 (stereo not given)	growth	95.9
c1ccc2c(-c3c[nH]c4ccccc34)c3c(cc2c1)[nH]c1ccccc13	growth	63
CCCOC(=O)N[C@H]1CCc2c(Cl)c(OC)c(OC)c(OC)c2-c2ccc(SC)c(=O)cc21	growth	13.8

Query string: CAKI-1 renal / growth / COc1cc2oc(-c3cccc(C(=O)Nc4ccc(Br)cc4)c3)cc(=O)c2c(OC)c1OC : value?
Result string: 20.6

* * *

# System: NCI-H23 lung
# Experiment Notes: NCI-60 one-dose screen, 48 h (100 = growth as untreated, 0 = no growth, -100 = all killed)
# Condition Description: 10 µM unless noted
About 83,000 compounds went through this panel and 20% of them were active in at least one assay; those are over-represented in the sample as a whole. Activity calls are given as the source filed them. The calls were made as follows: active = growth percent below 10; inactive = the rest.
Measured growth values are reported for all entries that follow.

1) O=C1Nc2cc(Cl)ccc2/C1=C\c1c(-c2ccc(F)cc2)nc2ccccn12 -20.4% (active)
2) C=C(C)[C@@H]1CC[C@]2(C(=O)N3CCN(C)CC3)CC[C@]3(C)[C@H](CC[C@@H]4[C@@]5(C)C/C(=C/c6cccnc6)C(=O)C(C)(C)[C@@H]5CC[C@]43C)[C@@H]12 78.5% (inactive)
3) COc1cccc(C(=O)NNc2nc(Cl)nc(N3CCN(C(c4ccccc4)c4ccccc4)CC3)n2)c1 45.3% (inactive)
4) CCCCOc1ccc(/C=N/Nc2cc(C)nc3ccc(Br)cc23)cc1 74.9% (inactive)
5) COc1cc2c(c(O)c1Br)C(=O)c1c(O)cc(C[C@H](C)O)cc1[C@H]2[C@H]1c2cc(C[C@H](C)O)cc(O)c2C(=O)c2c1cc(OC)c(Br)c2O 6.19% (active)

Query string: NCI-H23 lung / growth / COc1ccc(/C=C/c2nc(Nc3ccc(Cl)cc3)c3ccccc3n2)cc1 : value?
Result string: 73.1% (inactive)

Query string: NCI-H23 lung / growth / CCNC(=O)Oc1ccc(/C(=C(\C)c2ccccc2)c2ccc(OCCN(CC)CC)cc2)cc1 : value?
Result string: 78.9% (inactive)

Query string: NCI-H23 lung / growth / CCCC/C=N/NC(=S)NCc1ccccc1 : value?
Result string: 103% (inactive)

Query string: NCI-H23 lung / growth / O=C(Cn1c(C(=O)c2ccccc2)nc2ccccc21)c1ccc(F)cc1 : value?
Result string: 67.3% (inactive)

Query string: NCI-H23 lung / growth / COc1cc2nc(-c3ccc(Cl)cc3)cc(OCCCN3CCC(O)CC3)c2cc1OC : value?
Result string: 76.1% (inactive)

* * *

# Tested on: LOX IMVI melanoma
# Experiment Notes: NCI-60 one-dose screen, 48 h
# Condition Description: 10 µM unless noted
About 83,000 compounds went through this panel and 20% of them were active in at least one assay; those are over-represented in the sample as a whole. Calls of active or inactive are those of the source. Rule for the calls: active = growth percent below 10; inactive = the rest.
Your response should consist of one outcome taken from yes (1) = active, no (0) = inactive

Compound	Class
CC1(C)CC[C@]2(C(=O)O)CC[C@]3(C)C(=CC[C@@H]4[C@@]5(C)Cc6c([nH]c7ccccc67)C(C)(C)[C@@H]5CC[C@]43C)[C@@H]2C1	no (0)
c1ccc2c(-c3c[nH]c4ccccc34)c3c(cc2c1)[nH]c1ccccc13	no (0)

Query string: So what was the verdict on CC(=O)c1ccc(NS(=O)(=O)c2cccc(C(=O)Nc3ccc(Br)cc3)c2)cc1 in this test?
Result string: no (0)

* * *

# Test system: A549/ATCC NSCLC
# Experiment Notes: NCI-60 one-dose screen, 48 h (100 = growth as untreated, 0 = no growth, -100 = all killed)
# Condition Description: 10 µM unless noted
Compounds without any hit were thinned out: in the full panel of roughly 83,000, 20% have a hit.
Measured growth values are reported for all entries that follow.
The reply should be a number in %, with the unit left off.

1. Cc1ccc(-c2nc3ccccn3c2/C=C2/C(=O)Nc3cc(Cl)ccc32)cc1 90.6
2. COc1ccc(OC)c(CCn2cncc2-c2c[nH]c3ccccc23)c1 90.8

Alright, here's another compound for you.
Query string: Please look up its growth: COc1cccc(-c2nc3occn3c2-c2ccnc(NCCCNS(=O)(=O)c3ccc(C(F)(F)F)cc3)n2)c1
Result string: 89.7

* * *

# System: U251 CNS
# Experiment Notes: NCI-60 one-dose screen, 48 h (100 = growth as untreated, 0 = no growth, -100 = all killed)
# Condition Description: 10 µM unless noted
The panel holds about 83,000 compounds, 20% with a hit somewhere; the sample as a whole holds those more often. The source made the active and inactive calls. Rule for the calls: active = growth percent below 10; inactive = the rest.
Measured growth values are reported for all entries that follow.

These solved cases illustrate the format of a correct answer.
Molecule	Target Of Assay	growth
O=C(Nc1cccc(C2=NCCN2)c1)c1ccc(-c2ccc(C(=O)Nc3cccc(C4=NCCN4)c3)cc2)cc1	U251 CNS	86.3% (inactive)
Cn1c(-c2c(N)n(CCCN3CCOCC3)c3nc(C#N)c(C#N)nc23)nc2ccccc21	U251 CNS	67.8% (inactive)
CN1[C@@H]2CC[C@H]1/C(=C\c1ccccc1)C(=O)/C2=C/c1ccccc1	U251 CNS	16.6% (inactive)
COc1cc2nc(-c3ccc(Cl)cc3)cc(OCCCN3CCCC3)c2cc1OC	U251 CNS	54.4% (inactive)

Query string: Please look up its growth: CCCCNC(=O)Oc1ccc(/C(=C(\C)c2ccccc2)c2ccc(OCCN3CCCCC3)cc2)cc1
Result string: 50.7% (inactive)

Query string: Please look up its growth: CCCCOc1ccc(/C=N/Nc2cc(C)nc3ccc(Br)cc23)cc1
Result string: -53.5% (active)

Query string: Please look up its growth: NC(=NCCCOc1ccc(F)cc1)Nc1ccc(Cl)cc1
Result string: 76.7% (inactive)

Query string: Please look up its growth: OC(c1ccc(F)c(C(F)(F)F)c1)c1cnccc1NC1CCCCC1 (stereo unspecified)
Result string: 63.5% (inactive)
